Experiment: Half life in dog at 1 mg/kg, iv
Format: ADME, organism-based, Canis lupus familiaris
Set-up: dose 1 mg/kg, route intravenous
Conditions: in vivo
value type: half-life (h)

chem smiles	observed measurement
O=C(NCc1ccc(S(=O)(=O)c2cc(F)cc(F)c2)cn1)c1cc2ccncc2o1	4.7
CC(C)n1cc(S(=O)(=O)c2ccc(CNC(=O)c3cc4ccncc4o3)nc2)cn1	1.5

---

Assay: Clearance in rat at 1 mg/kg, iv
Assay type: ADME, organism-based
Design: dose 1 mg/kg, route intravenous
Settings: in vivo
Recorded clearance by entry

chem smiles	unit of measurement	clearance
CC(C)n1cc(S(=O)(=O)c2ccc(CNC(=O)c3cc4ccncc4o3)nc2)cn1	mL/min/kg	55
O=C(NCc1ccc(S(=O)(=O)c2cc(F)cc(F)c2)cn1)c1cc2ccncc2o1	mL/min/kg	40
CC(C)CN1CCC([S@](=O)c2ccc(CNC(=O)c3cc4ccncc4o3)cc2)CC1	mL/min/kg	225
O=C(NCc1ccc([S@@](=O)c2cc(F)cc(F)c2)cn1)c1cc2ccncc2o1	mL/min/kg	105
